// data source = paper PMC8469489

Test Method Notes: Pharmacokinetics of ginsenosides after single oral RGE with or without amoxicillin treatment
Format: in vivo, mice
Measurement Setup: male, ICR, mouse, plasma, po, 2 g/kg, Amoxicillin 3 days pretreatment; single oral RGE 2 g/kg; read-out: Half-life (converted)
Outcome Measure: Half-Life (h)
# output: bare number, implied unit h

GET /values?readout=Half-Life&item= CC(C)=CCC[C@](C)(O[C@@H]1O[C@H](CO[C@@H]2O[C@H](CO)[C@@H](O)[C@H](O)[C@H]2O)[C@@H](O)[C@H](O)[C@H]1O)[C@H]1CC[C@]2(C)[C@@H]1[C@H](O)C[C@@H]1[C@@]3(C)CC[C@H](O[C@@H]4O[C@H](CO)[C@@H](O)[C@H](O)[C@H]4O[C@@H]4O[C@H](CO)[C@@H](O)[C@H](O)[C@H]4O)C(C)(C)[C@@H]3CC[C@]12C [GRb1, 20(S)-ginsenosides Rb1] 21.7

====

Test Method Notes: Pharmacokinetics of ginsenosides after single oral RGE after amoxicillin with or without repeated LAB treatment
Measurement Setup: Amoxicillin + LAB (LAB 2 g/kg once daily 7 days); single oral RGE 2 g/kg; AUC 0 to 48 h
Checkbox rule: AUC lower than 500 ng·h/mL = true (1); AUC not lower than 500 ng·h/mL = false (0).

Some entries whose results are on file:
CC(C)=CCC[C@](C)(O[C@@H]1O[C@H](CO[C@@H]2OC[C@H](O)[C@H](O)[C@H]2O)[C@@H](O)[C@H](O)[C@H]1O)[C@H]1CC[C@]2(C)[C@@H]1[C@H](O)C[C@@H]1[C@@]3(C)CC[C@H](O[C@@H]4O[C@H](CO)[C@@H](O)[C@H](O)[C@H]4O[C@@H]4O[C@H](CO)[C@@H](O)[C@H](O)[C@H]4O)C(C)(C)[C@@H]3CC[C@]12C
true (1)
CC(C)=CCC[C@](C)(O[C@@H]1O[C@H](CO)[C@@H](O)[C@H](O)[C@H]1O)[C@H]1CC[C@]2(C)[C@@H]1[C@H](O)C[C@@H]1[C@@]3(C)CC[C@H](O[C@@H]4O[C@H](CO)[C@@H](O)[C@H](O)[C@H]4O[C@@H]4O[C@H](CO)[C@@H](O)[C@H](O)[C@H]4O)C(C)(C)[C@@H]3CC[C@]12C
false (0)
CC(C)=CCC[C@](C)(O[C@@H]1O[C@H](CO)[C@@H](O)[C@H](O)[C@H]1O)[C@H]1CC[C@]2(C)[C@@H]1[C@H](O)C[C@@H]1[C@@]3(C)CC[C@H](O)C(C)(C)[C@@H]3CC[C@]12C [CK, 20(S)-compound K]
true (1)
CC(C)=CCC[C@](C)(O[C@@H]1O[C@H](CO[C@@H]2O[C@@H](CO)[C@H](O)[C@H]2O)[C@@H](O)[C@H](O)[C@H]1O)[C@H]1CC[C@]2(C)[C@@H]1[C@H](O)C[C@@H]1[C@@]3(C)CC[C@H](O[C@@H]4O[C@H](CO)[C@@H](O)[C@H](O)[C@H]4O[C@@H]4O[C@H](CO)[C@@H](O)[C@H](O)[C@H]4O)C(C)(C)[C@@H]3CC[C@]12C
false (0)

Okay, next one:
Field: below-cutoff. Rule: recorded AUC strictly less than 500 ng·h/mL. Subject: CC(C)=CCC[C@](C)(O)[C@H]1CC[C@]2(C)[C@@H]1[C@H](O)C[C@@H]1[C@@]3(C)CC[C@H](O[C@@H]4O[C@H](CO)[C@@H](O)[C@H](O)[C@H]4O[C@@H]4O[C@H](CO)[C@@H](O)[C@H](O)[C@H]4O)C(C)(C)[C@@H]3CC[C@]12C true (1)

====

Test Method Notes: Pharmacokinetics of ginsenosides after single oral RGE after amoxicillin with or without repeated LAB treatment
Measurement Setup: male, ICR, mouse, plasma, po, 2 g/kg, Half-life, Amoxicillin + LAB; single oral RGE 2 g/kg
Outcome Measure: Half-Life
Answer format: value, then unit.

GET /values?readout=Half-Life&item= CC(C)=CCC[C@](C)(O[C@@H]1O[C@H](CO[C@@H]2O[C@H](CO)[C@@H](O)[C@H](O)[C@H]2O)[C@@H](O)[C@H](O)[C@H]1O)[C@H]1CC[C@]2(C)[C@@H]1[C@H](O)C[C@@H]1[C@@]3(C)CC[C@H](O[C@@H]4O[C@H](CO)[C@@H](O)[C@H](O)[C@H]4O[C@@H]4O[C@H](CO)[C@@H](O)[C@H](O)[C@H]4O)C(C)(C)[C@@H]3CC[C@]12C [GRb1, 20(S)-ginsenosides Rb1] 16.2 h

====

Test Method Notes: Pharmacokinetics of ginsenosides after single oral RGE after amoxicillin with or without repeated LAB treatment
Measurement Setup: male, ICR, mouse, plasma, po, 2 g/kg, Half-Life, Amoxicillin 3 days then water 7 days; single oral RGE 2 g/kg
Outcome Measure: Half-Life

GET /values?readout=Half-Life&item= CC(C)=CCC[C@](C)(O[C@@H]1O[C@H](CO[C@@H]2O[C@H](CO)[C@@H](O)[C@H](O)[C@H]2O)[C@@H](O)[C@H](O)[C@H]1O)[C@H]1CC[C@]2(C)[C@@H]1[C@H](O)C[C@@H]1[C@@]3(C)CC[C@H](O[C@@H]4O[C@H](CO)[C@@H](O)[C@H](O)[C@H]4O[C@@H]4O[C@H](CO)[C@@H](O)[C@H](O)[C@H]4O)C(C)(C)[C@@H]3CC[C@]12C [GRb1, 20(S)-ginsenosides Rb1] 20.1 h

====

Test Method Notes: Recovery of ginsenosides from urine and feces for 48 h after RGE, amoxicillin vs control
Measurement Setup: feces 48 h after single oral RGE 2 g/kg; vs control
Outcome Measure: Fecal recovery, change by the amoxicillin treatment

CC(C)=CCC[C@](C)(O[C@@H]1O[C@H](CO)[C@@H](O)[C@H](O)[C@H]1O)[C@H]1CC[C@]2(C)[C@@H]1[C@H](O)C[C@@H]1[C@@]3(C)CC[C@H](O)C(C)(C)[C@@H]3[C@@H](O[C@@H]3O[C@H](CO)[C@@H](O)[C@H](O)[C@H]3O)C[C@]12C
increased
CC(C)=CCC[C@](C)(O[C@@H]1O[C@H](CO)[C@@H](O)[C@H](O)[C@H]1O)[C@H]1CC[C@]2(C)[C@@H]1[C@H](O)C[C@@H]1[C@@]3(C)CC[C@H](O)C(C)(C)[C@@H]3[C@@H](O[C@@H]3O[C@H](CO)[C@@H](O)[C@H](O)[C@H]3O[C@@H]3O[C@@H](C)[C@H](O)[C@@H](O)[C@H]3O)C[C@]12C
increased
CC(C)=CCC[C@](C)(O)[C@H]1CC[C@]2(C)[C@@H]1[C@H](O)C[C@@H]1[C@@]3(C)CC[C@H](O)C(C)(C)[C@@H]3[C@@H](O)C[C@]12C [PPT, 20(S)-protopanaxatriol]
significantly decreased
CC(C)=CCC[C@](C)(O[C@@H]1O[C@H](CO[C@@H]2OC[C@H](O)[C@H](O)[C@H]2O)[C@@H](O)[C@H](O)[C@H]1O)[C@H]1CC[C@]2(C)[C@@H]1[C@H](O)C[C@@H]1[C@@]3(C)CC[C@H](O[C@@H]4O[C@H](CO)[C@@H](O)[C@H](O)[C@H]4O[C@@H]4O[C@H](CO)[C@@H](O)[C@H](O)[C@H]4O)C(C)(C)[C@@H]3CC[C@]12C
increased

From here, focus on the item given below.
GET /values?readout=Fecal recovery, change by the amoxicillin treatment&item= CC(C)=CCC[C@](C)(O[C@@H]1O[C@H](CO)[C@@H](O)[C@H](O)[C@H]1O)[C@H]1CC[C@]2(C)[C@@H]1[C@H](O)C[C@@H]1[C@@]3(C)CC[C@H](O[C@@H]4O[C@H](CO)[C@@H](O)[C@H](O)[C@H]4O)C(C)(C)[C@@H]3CC[C@]12C significantly decreased

====

Test Method Notes: Pharmacokinetics of ginsenosides after single oral RGE after amoxicillin with or without repeated LAB treatment
Measurement Setup: single oral RGE 2 g/kg
Outcome Measure: Detection in mouse plasma following repeated LAB administration in addition to amoxicillin

CC(C)=CCC[C@](C)(O[C@@H]1O[C@H](CO[C@@H]2O[C@@H](CO)[C@H](O)[C@H]2O)[C@@H](O)[C@H](O)[C@H]1O)[C@H]1CC[C@]2(C)[C@@H]1[C@H](O)C[C@@H]1[C@@]3(C)CC[C@H](O[C@@H]4O[C@H](CO)[C@@H](O)[C@H](O)[C@H]4O[C@@H]4O[C@H](CO)[C@@H](O)[C@H](O)[C@H]4O)C(C)(C)[C@@H]3CC[C@]12C
detected
CC(C)=CCC[C@](C)(O[C@@H]1O[C@H](CO[C@@H]2OC[C@H](O)[C@H](O)[C@H]2O)[C@@H](O)[C@H](O)[C@H]1O)[C@H]1CC[C@]2(C)[C@@H]1[C@H](O)C[C@@H]1[C@@]3(C)CC[C@H](O[C@@H]4O[C@H](CO)[C@@H](O)[C@H](O)[C@H]4O[C@@H]4O[C@H](CO)[C@@H](O)[C@H](O)[C@H]4O)C(C)(C)[C@@H]3CC[C@]12C
detected
